Origin of values: patent US11266636B2

- method.description: Solubility determination in different pharmaceutical excipients at ambient temperature
- experimental.conditions: organic solvent or mixture, thermodynamic from solid
measured.quantity: solubility at 22 h (mg/mL)
Your answer is read as mg/mL, so omit the unit and give the number.

Query: What value of solubility at 22 h has been reported for the following compound? Cc1nc(N(C)C(=O)Cc2ccc(-c3ccccn3)cc2)sc1S(N)(=O)=O.O=S(=O)(O)O [sulfate salt]
Reply: 12.5

* * *

- method.description: Solubility in water and resulting pH
- Assay type: physicochemical
- experimental.conditions: water, thermodynamic from solid
measured.quantity: solubility at 22 h

Worked set:
1. CCS(=O)(=O)O.Cc1nc(N(C)C(=O)Cc2ccc(-c3ccccn3)cc2)sc1S(N)(=O)=O [mono ethane sulfonate salt] : 175 to 606 µg/mL
2. Cc1nc(N(C)C(=O)Cc2ccc(-c3ccccn3)cc2)sc1S(N)(=O)=O.O=S(=O)(O)O [sulfate salt] : 175 to 606 µg/mL

Next up:
Query: Requested read-out: solubility at 22 h. Entry: Cc1nc(N(C)C(=O)Cc2ccc(-c3ccccn3)cc2)sc1S(N)(=O)=O [free base of pritelivir, reference compound]
Reply: 1.3 µg/mL
